target: recombinant human PAI-1 (Homo sapiens, UniProt P05121); construct: purchased Molecular Innovations, Inc; assay: Test Example 1: human PAI-1 inhibitory activity (tPA fluorogenic substrate, pH 7.5 Tris buffer); assay type: biochemical; conditions: Compound Concentration 25 μM; Tris buffer
Sequence (P05121 24-402): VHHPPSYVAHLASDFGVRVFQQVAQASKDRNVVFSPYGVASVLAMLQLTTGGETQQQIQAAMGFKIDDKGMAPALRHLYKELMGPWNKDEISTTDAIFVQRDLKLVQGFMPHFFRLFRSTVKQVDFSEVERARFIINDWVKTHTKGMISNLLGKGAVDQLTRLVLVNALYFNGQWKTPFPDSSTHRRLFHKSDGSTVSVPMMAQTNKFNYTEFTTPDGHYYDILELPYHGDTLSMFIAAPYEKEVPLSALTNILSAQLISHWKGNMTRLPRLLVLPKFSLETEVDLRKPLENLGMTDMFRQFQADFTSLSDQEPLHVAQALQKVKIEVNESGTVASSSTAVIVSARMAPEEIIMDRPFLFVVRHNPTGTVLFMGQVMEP
Decide using Inhibition Rate of PAI-1 Activity (%): a value greater than or equal to 90% is T, a smaller one is F.

Some entries whose results are on file:
| Compound | Assigned label |
| --- | --- |
| CC(C)(C)c1ccc(COc2ccc(-c3ccc(F)cc3)cc2/C=C/C(=O)O)cc1 [Compound 33] | T |
| O=C(O)C(=O)N(c1ccc(-c2ccc(OC(F)(F)F)cc2)cc1)C1CCCCC1 [Compound 253] | F |
| COc1ccc(CN(C(=O)C(=O)O)c2ccc(-c3ccc(OC(F)(F)F)cc3)cc2)cc1 [Compound 131] | F |
| CC(C)(C)c1ccc(CN(C(=O)C(=O)O)c2cc(Oc3ccc(OC(F)(F)F)cc3)cc(C(F)(F)F)c2)cc1 [Compound 175] | F |
| CC(C)(C)c1ccc(COc2cc(Oc3ccc(OC(F)(F)F)cc3)ccc2/C=C/C(=O)O)cc1 [Compound 77] | F |

Determine whether this compound has Inhibition Rate of PAI-1 Activity (%) no lower than 90%: CC(C)(C)c1ccc(CN(C(=O)C(=O)O)c2ccc(Cl)cc2Oc2ccc(OC(F)(F)F)cc2)cc1 [Compound 191]
F

Try this compound next: CCC(Oc1ccc(-c2ccc(OC(F)(F)F)cc2)cc1Oc1ccc(C(C)(C)C)cc1)C(=O)O (stereo not drawn) [Compound 114]
T

Try this compound next: CCCCc1ccc(CN(C(=O)C(=O)O)c2ccc(-c3ccc(OC(F)(F)F)cc3)cc2)cc1 [Compound 167]
F

Try this compound next: O=C(O)CCc1cc(-c2ccc(OC(F)(F)F)cc2)ccc1OCc1ccc(OC(F)(F)F)cc1 [Compound 62]
T

Try this compound next: CC(C)(C)c1ccc(COc2ccc(-c3cccc(OC(F)(F)F)c3)cc2/C=C/C(=O)O)cc1 [Compound 63]
T

Try this compound next: CC(C)(C)c1ccc(COc2ccc(-c3ccccc3OC(F)(F)F)cc2/C=C/C(=O)O)cc1 [Compound 65]
T

----------
biological target: recombinant human PAI-1 (Homo sapiens); construct: purchased Molecular Innovations, Inc; assay: Test Example 2: human PAI-1 inhibitory activity (tPA fluorogenic substrate, pH 7.4 HEPES buffer); format: biochemical; conditions: human PAI-1; compound concentration 0.3 μM
Readout kind: Inhibition Rate of PAI-1 Activity (%)
Value expressed in %; do not type the unit.

See these solved cases before continuing.
| Chemical structure | Inhibition Rate of PAI-1 Activity (%) |
| --- | --- |
| COc1ccc(-c2ccc(OC(F)(F)F)cc2)cc1N(CCCCc1ccccc1)C(=O)C(=O)O | 0 |
| CC(C)(C)c1ccc(Oc2cc(-c3ccccc3OC(F)(F)F)ccc2/C=C/C(=O)O)cc1 | 9 |
| CC(C)(C)c1cccc(Oc2cc(-c3cccc(OC(F)(F)F)c3)ccc2/C=C/C(=O)O)c1 | 22 |

Item under review: "CC(C)(C)c1ccc(Oc2cc(-c3ccccc3OC(F)(F)F)ccc2CCC(=O)O)cc1" . Reported Inhibition Rate of PAI-1 Activity (%)?
6

----------
biological target: recombinant human PAI-1 (Homo sapiens, UniProt P05121); construct: purchased Molecular Innovations, Inc; assay: Test Example 1: human PAI-1 inhibitory activity (tPA fluorogenic substrate, pH 7.5 Tris buffer); type: biochemical; details: Compound Concentration 5 μM; Tris buffer
Readout kind: Inhibition Rate of PAI-1 Activity (%)
Value expressed in %; do not type the unit.

| Chemical structure | Test result |
| --- | --- |
| CC(C)(C)c1ccc(COc2ccc(-c3ccc(C(F)(F)F)cc3)cc2CCC(=O)O)cc1 | 23 |
| Cc1cc(N(C)C)c(-c2ccc(OC(F)(F)F)cc2)cc1N(CCCCc1ccccc1)C(=O)C(=O)O | 79 |
| CC(C)(C)c1ccc(COc2c(Cl)cc(-c3ccc(OC(F)(F)F)cc3)cc2CCC(=O)O)cc1 | 25 |

Item under review: "O=C(O)COc1cc(-c2ccc(OC(F)(F)F)cc2)ccc1OCCCCc1ccccc1" . Reported Inhibition Rate of PAI-1 Activity (%)?
34

----------
Target: recombinant human PAI-1 (Homo sapiens, UniProt P05121)
Construct: purchased Molecular Innovations, Inc
Assay: Test Example 2: human PAI-1 inhibitory activity (tPA fluorogenic substrate, pH 7.4 HEPES buffer)
Assay type: biochemical
Conditions: human PAI-1; compound concentration 0.3 μM
Experimental: 0.1 M HEPES, 0.1 M NaCl. 1 mM EDTA. 0.1% Polyethylene glycol 8,000 (Hampton Research Corporation), 2 mM Dimethyldecylphoshine oxide [Apo-10] (Fluka Corporation)
Item-by-item account of Inhibition Rate of PAI-1 Activity (%)

| Compound | Inhibition Rate of PAI-1 Activity (%) |
| --- | --- |
| CC(C)(C)c1ccc(Oc2cc(-c3ccc(OC(F)(F)F)cc3)ccc2NCC(=O)O)cc1 [Compound 442] | 4% |
| CCCCc1ccc(Oc2cc(-c3ccc(OC(F)(F)F)cc3)ccc2OCC(=O)O)cc1 [Compound 481] | 16% |
| CC(C)c1ccc(-c2ccc(OCC(=O)O)c(Oc3ccc(C(C)(C)C)cc3)c2)cc1 [Compound 441] | 29% |
| CC(C)(C)c1ccc(Oc2ccc(-c3ccc(OC(F)(F)F)cc3)cc2OCC(=O)O)cc1 [Compound 328] | 14% |
| O=C(O)C(=O)N(CCCCc1ccccc1)c1cc(-c2ccc(OC(F)(F)F)cc2)ccc1Oc1ccccc1 [Compound 638] | 15% |
| O=C(O)/C=C/c1cc(-c2ccc(OC(F)(F)F)cc2)ccc1OCCCCCOc1ccc(-c2ccc(OC(F)(F)F)cc2)cc1/C=C/C(=O)O [Compound 543] | 1% |

Switching to the query record.
Item under review: O=C(O)CCc1ccc(-c2ccc(OC(F)(F)F)cc2)cc1OC(c1ccccc1)c1ccccc1 [Compound 507] . Reported Inhibition Rate of PAI-1 Activity (%)?
8%

----------
Item-by-item account of pIC50
target: recombinant human PAI-1 (Homo sapiens); construct: purchased Molecular Innovations, Inc; test: Test Example 2: human PAI-1 inhibitory activity (tPA fluorogenic substrate, pH 7.4 HEPES buffer); assay type: biochemical; settings: human PAI-1; calculated from the inhibition rates
pIC50 here: minus log base 10 of the concentration, concentration in moles per litre.

| Compound | pIC50 |
| --- | --- |
| CCCCCCC(Oc1cc(-c2ccc(OC(F)(F)F)cc2)ccc1Oc1ccc(OC(F)(F)F)cc1)C(=O)O (stereo not drawn) [Compound 326] | 6.48 |
| CCN(CC)c1ccc(N(CCCc2ccccc2)C(=O)C(=O)O)c(-c2ccc(OC(F)(F)F)cc2)c1 [Compound 238] | 5.80 |
| CC(C)(C)c1ccc(C(c2ccccc2)N(C(=O)C(=O)O)c2ccc(-c3ccc(OC(F)(F)F)cc3)cc2)cc1 (stereo not drawn) [Compound 222] | 5.97 |
| CCCCCOc1ccc(-c2ccc(OC(F)(F)F)cc2)cc1N(CCCSc1ccccc1)C(=O)C(=O)O [Compound 357] | 6.11 |

Item under review: CC(C)(C)c1ccc(COc2cc(Oc3ccc(OC(F)(F)F)cc3)ccc2CCC(=O)O)cc1 [Compound 78] . Reported pIC50?
5.86

Try this compound next: CCCCCN(C(=O)C(=O)O)c1cc(-c2ccc(OC(F)(F)F)cc2)ccc1OCCCCc1ccccc1 [Compound 358]
6.05

Try this compound next: O=C(O)COc1ccc(-c2ccc(OC(F)(F)F)cc2)cc1OCCCCc1ccccc1 [Compound 337]
5.69

Try this compound next: CC(C)(C)c1ccc(Oc2ccc(-c3ccc(OC(F)(F)F)cc3)cc2OCC(=O)O)cc1 [Compound 302]
5.77

Try this compound next: CCC(CC)Oc1ccc(-c2ccc(OC(F)(F)F)cc2)cc1N(CCCc1ccccc1)C(=O)C(=O)O [Compound 233]
6.05

Try this compound next: CCCCOc1ccc(N(CCCCc2ccccc2)C(=O)C(=O)O)cc1-c1ccc(OC(F)(F)F)cc1 [Compound 227]
5.95

Try this compound next: CC(C)(C)c1ccc(Oc2cc(-c3cccc(C(F)(F)F)c3)ccc2OCC(=O)O)cc1 [Compound 315]
6.07

Try this compound next: CC(C)(C)c1ccc(Oc2ccc(Oc3ccc(OC(F)(F)F)cc3)cc2CCC(=O)O)cc1 [Compound 100]
5.87

Try this compound next: CCCCCOc1cc(-c2ccc(OC(F)(F)F)cc2)cc(OCc2ccc(C(C)(C)C)cc2)c1OCC(=O)O [Compound 301]
6.33

Try this compound next: CC(C)(C)c1ccc(Oc2cc(-c3ccc(C(F)(F)F)cc3)ccc2OCC(=O)O)cc1 [Compound 330]
5.99

Try this compound next: CCCCCOc1ccc(-c2ccc(OC(F)(F)F)cc2)cc1N(CCCCc1ccccc1)C(=O)C(=O)O [Compound 226]
6.29
